# assayed target: hGLP-1R (Homo sapiens, UniProt P43220)
# Sequence (P43220 24-463): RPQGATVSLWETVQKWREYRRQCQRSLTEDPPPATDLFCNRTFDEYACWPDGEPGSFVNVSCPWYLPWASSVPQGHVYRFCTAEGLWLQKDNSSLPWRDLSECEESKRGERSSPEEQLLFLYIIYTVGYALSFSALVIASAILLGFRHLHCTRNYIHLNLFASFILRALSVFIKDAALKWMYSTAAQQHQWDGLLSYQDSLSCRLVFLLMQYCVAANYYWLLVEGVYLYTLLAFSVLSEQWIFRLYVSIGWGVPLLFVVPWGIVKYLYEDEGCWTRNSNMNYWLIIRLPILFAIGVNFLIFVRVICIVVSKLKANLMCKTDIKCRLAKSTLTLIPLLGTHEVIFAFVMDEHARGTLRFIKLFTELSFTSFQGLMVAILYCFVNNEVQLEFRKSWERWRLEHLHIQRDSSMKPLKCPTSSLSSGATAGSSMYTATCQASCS
# Sequence (P32121 whole entry partner): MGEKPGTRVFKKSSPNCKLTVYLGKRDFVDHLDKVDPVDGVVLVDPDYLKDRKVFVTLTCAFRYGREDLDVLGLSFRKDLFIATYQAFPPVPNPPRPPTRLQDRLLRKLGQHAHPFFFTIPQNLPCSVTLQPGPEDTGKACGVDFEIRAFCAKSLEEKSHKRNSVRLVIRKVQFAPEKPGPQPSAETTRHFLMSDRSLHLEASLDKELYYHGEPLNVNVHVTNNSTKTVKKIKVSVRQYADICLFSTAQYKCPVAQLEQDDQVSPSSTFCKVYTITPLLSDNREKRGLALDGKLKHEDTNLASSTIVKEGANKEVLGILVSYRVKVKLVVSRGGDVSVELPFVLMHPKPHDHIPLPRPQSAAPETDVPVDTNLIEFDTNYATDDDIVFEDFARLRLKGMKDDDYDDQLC
# experiment notes: GLP-1R CHO cell β-arrestin recruitment assay;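 also: luminescence read after 90 min peptide exposure at 37 °C and a further 60 min with detection reagent at room temperature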
# Type: cell-based
# Set-up: host or cells: CHO-K1 (PathHunter, assay-ready frozen cells)
# experimental setup: CHO-K1 PathHunter, β-arrestin-2, 0.1% casein; read-out: hGLP1R β-arrestin Rel EC50
Starred links: 1 amine or outer side, 2 acyl side, 3 side chain; linkers in the order of their positions; H or OH if unused. Non-standard residues stand in square brackets, D forms with d. Groups on a side chain read outwards from the residue. *: point of attachment. C20 diacid = O=C(O)CCCCCCCCCCCCCCCCCCC(=O)*; αMePhe(2-F) = C[C@](N)(Cc1ccccc1F)C(=O)O; γGlu = O=C(O)[C@H](CCC(=O)[*:2])N[*:1]; NMeY = CN[C@@H](Cc1ccc(O)cc1)C(=O)O; αMeF = C[C@](N)(Cc1ccccc1)C(=O)O; αMeL = CC(C)C[C@](C)(N)C(=O)O; AEEA = NCCOCCOCC(=O)O; Aib = CC(C)(N)C(=O)O
test readout: EC50 (µM)
The figure you give is taken to be in µM; do not add the unit.

H-Y[Aib]QGTFTSDFSI[αMeL]LDKK([AEEA-γGlu-C20 diacid])AQ[Aib]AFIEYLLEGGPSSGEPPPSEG-NH2 [Example 288] = 0.0163
H-Y[Aib]QGT[αMePhe(2-F)]TSDYSILLDKIAQK([AEEA-γGlu-C20 diacid])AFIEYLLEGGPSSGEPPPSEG-NH2 [Example 293] = 0.0119

q: Give the measured EC50 for H-Y[Aib]QGTFTSDYSI[αMeL]LDKIAAK([AEEA-AEEA-γGlu-C20 diacid])QFVQWLIE[Aib]GPSSGEPPPSEG-NH2 [Example 323]
a: 0.0108

q: Output measured EC50 for this item: H-Y[Aib]QGT[αMePhe(2-F)]TSDYSILLDKIAAK([AEEA-γGlu-C20 diacid])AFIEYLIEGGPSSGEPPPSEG-NH2 [Example 296]
a: 0.014

q: Assign EC50 to the following record: H-Y[Aib]QGTFTSDYSI[αMeL]LDKQAAK([AEEA-AEEA-γGlu-C20 diacid])AFVEWLLAGGPSSGEPPPSEG-NH2 [Example 305]
a: 0.0233

q: Provide EC50 value for the following substance: H-[NMeY][Aib]QGT[αMeF]TSDYSILLDKQAAK([AEEA-AEEA-γGlu-C20 diacid])AFVQWLIEGGPSSGEPPPSEG-NH2 [Example 302]
a: 0.0112

q: Provide measured EC50 value, entry: H-H[Aib]QGT[αMePhe(2-F)]TSDYSILLDKK([AEEA-γGlu-C20 diacid])AA[Aib]AFIEYLIETGPSSGEPPPSEG-NH2 [Example 290]
a: 0.00394

q: Return the recorded EC50 value; entry: H-[NMeY][Aib]QGT[αMeF]TSDYSILLDKQAAK([AEEA-AEEA-γGlu-C20 diacid])AFVQWLIAGGPSSGEPPPSEG-NH2 [Example 301]
a: 0.0132

q: Find the measured EC50 of H-Y[Aib]QGT[αMePhe(2-F)]TSDYSKLLDKQAQK([AEEA-γGlu-C20 diacid])QFIEYLIEGGPSSGEPPPSEG-NH2 [Example 309] and report it.
a: 0.00672

q: For the substance H-[NMeY][Aib]QGT[αMeF]TSDYSILLDKIAAK([AEEA-AEEA-γGlu-C20 diacid])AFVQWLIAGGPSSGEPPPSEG-NH2 [Example 300] , give its measured EC50 value.
a: 0.0157

q: Return EC50 (reported value) for this substance: H-Y[Aib]QGT[αMePhe(2-F)]TSDYSKILDKIAQK([AEEA-γGlu-C20 diacid])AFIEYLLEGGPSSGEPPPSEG-NH2 [Example 311]
a: 0.0192
